Reference source for all entries: PubChem BioAssay (NCI)

system: IGROV1 ovarian; experiment: NCI tumour cell line growth inhibition, 48 h
Listed next: entries and their corresponding TGI.

Example cases with answers are listed next.
[[record]]
compound = "O=S(=O)(O)SC/C=C\\CSS(=O)(=O)O"
experimentaltarget = "IGROV1 ovarian"
assayresult = "> 100 µM"

[[record]]
compound = "COc1cc(C2SC(N)=Nc3c2c(C)nn3C(=O)c2ccc(Cl)cc2)cc(OC)c1OC (stereo unspecified)"
experimentaltarget = "IGROV1 ovarian"
assayresult = "> 10 µM"

[[record]]
compound = "Cc1ccc(C(=O)Nc2ccccc2)cc1N=NN(C)C"
experimentaltarget = "IGROV1 ovarian"
assayresult = "> 100 µM"

[[record]]
compound = "O=C1c2ccccc2-c2nnc(-c3ccc(Br)cc3)cc21"
experimentaltarget = "IGROV1 ovarian"
assayresult = "> 100 µM"

[[record]]
compound = "Cc1ccc(S(=O)(=O)N/N=C2\\CC3C4C=CC3C2C4)cc1 (stereo unspecified)"
experimentaltarget = "IGROV1 ovarian"
assayresult = "> 100 µM"


# input Entry "COc1cc(NCCCCCN=C(N)N)c2ncccc2c1" , system IGROV1 ovarian: what TGI was measured?
# output > 36 µM

# input Also, "CNC(=S)Nc1sc2c(c1C#N)CCCC2" please.
# output > 75 µM
